Assay: DPPH radical-scavenging method (anti-oxidant potential)
Format: biochemical
Conditions: 300 minutes reaction time; mg DPPH remaining vs mg compound, linear regression; absorbance at 517 nm
Description: The ability of a component to serve as an anti-oxidant is readily tested by a variety of methods known in the art. […] This absorbance disappears as the DPPH is consumed upon reduction by an antiradical compound. The disappearance of this so-called absorbance band can be followed by spectroscopic methods allowing quantitative measurements of the compound's anti-oxidant ability. […] The percent of DPPH remaining at a given time interval was calculated using the following equation: […]
recorded endpoint: Slope (anti-oxidant potential) (mg/mg)

INSERT INTO results (compound, test_result) VALUES
  ('CCCCC/C=C\C/C=C\C/C=C\C/C=C\CCCC(=O)O [Arachidonic Acid, arachidonic acid, reference compound]', -0.0011),
  ('COC1=C(OC)C(=O)C(C/C=C(\C)CC/C=C(\C)CC/C=C(\C)CC/C=C(\C)CC/C=C(\C)CC/C=C(\C)CC/C=C(\C)CC/C=C(\C)CC/C=C(\C)CCC=C(C)C)=C(C)C1=O [Coenzyme Q10, coenzyme Q10, reference compound]', -0.0021),
  ('CC/C=C\C/C=C\C/C=C\CCCCCCCC(=O)O [Linolenic Acid, α-linolenic acid, reference compound]', -0.0011),
  ('CCCCC/C=C\C/C=C\CCCCCCCC(=O)O [Linoleic Acid, linoleic acid, reference compound]', -0.0005);

---

assay: DPPH radical-scavenging method (anti-oxidant potential); assay type: biochemical; settings: 300 minutes reaction time; calculated from slope
recorded endpoint: RD(.05 mg): amount of compound needed to deplete .05 mg of DPPH

INSERT INTO assay_data (compound, test_result) VALUES
  ('CCCCC/C=C\C/C=C\C/C=C\C/C=C\CCCC(=O)O [Arachidonic Acid, arachidonic acid, reference compound]', 45.45),
  ('CCCCC/C=C\C/C=C\CCCCCCCC(=O)O [Linoleic Acid, linoleic acid, reference compound]', 100.00),
  ('CC/C=C\C/C=C\C/C=C\CCCCCCCC(=O)O [Linolenic Acid, α-linolenic acid, reference compound]', 45.45),
  ('COC1=C(OC)C(=O)C(C/C=C(\C)CC/C=C(\C)CC/C=C(\C)CC/C=C(\C)CC/C=C(\C)CC/C=C(\C)CC/C=C(\C)CC/C=C(\C)CC/C=C(\C)CCC=C(C)C)=C(C)C1=O [Coenzyme Q10, coenzyme Q10, reference compound]', 23.81);

// data source = patent US9085463B2
